Numbers sourced from ChEMBL document CHEMBL2311362.

testedOn: UniProtKB O14684
Sequence (O14684 whole entry): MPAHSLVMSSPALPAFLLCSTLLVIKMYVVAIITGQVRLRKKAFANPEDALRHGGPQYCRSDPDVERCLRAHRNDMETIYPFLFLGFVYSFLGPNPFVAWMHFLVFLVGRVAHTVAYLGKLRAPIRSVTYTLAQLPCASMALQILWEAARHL
In this section, each of the compounds is paired with its reported IC50.
Form entry: value (µM) — number only.

These recorded examples may help you get a feel for the data.
compoundStructureString	metricName	valueObserved
NC(=O)c1nnn(CCNS(=O)(=O)c2ccccc2)c1C(N)=O	IC50	23.3
CCCN(CCn1nnc(C(=O)O)c1C(=O)O)S(=O)(=O)c1ccc(C)cc1	IC50	3.8
CCS(=O)(=O)NCCn1nnc(C(=O)O)c1C(=O)O	IC50	9.7

Query: Entry CS(=O)(=O)NCCn1nnc(C(=O)O)c1C(=O)O has what IC50?
Result: 10.3
